biological target: Sodium channel protein type 9 subunit alpha (Homo sapiens); assay: Inhibition of recombinant human Nav1.7 expressed in HEK293 cells assessed as reduction in peak inward current at -60 mV holding potential measured after 600 secs by IonWorks Barracuda patch-clamp assay; type: cell-based
Sequence (Q15858 whole entry): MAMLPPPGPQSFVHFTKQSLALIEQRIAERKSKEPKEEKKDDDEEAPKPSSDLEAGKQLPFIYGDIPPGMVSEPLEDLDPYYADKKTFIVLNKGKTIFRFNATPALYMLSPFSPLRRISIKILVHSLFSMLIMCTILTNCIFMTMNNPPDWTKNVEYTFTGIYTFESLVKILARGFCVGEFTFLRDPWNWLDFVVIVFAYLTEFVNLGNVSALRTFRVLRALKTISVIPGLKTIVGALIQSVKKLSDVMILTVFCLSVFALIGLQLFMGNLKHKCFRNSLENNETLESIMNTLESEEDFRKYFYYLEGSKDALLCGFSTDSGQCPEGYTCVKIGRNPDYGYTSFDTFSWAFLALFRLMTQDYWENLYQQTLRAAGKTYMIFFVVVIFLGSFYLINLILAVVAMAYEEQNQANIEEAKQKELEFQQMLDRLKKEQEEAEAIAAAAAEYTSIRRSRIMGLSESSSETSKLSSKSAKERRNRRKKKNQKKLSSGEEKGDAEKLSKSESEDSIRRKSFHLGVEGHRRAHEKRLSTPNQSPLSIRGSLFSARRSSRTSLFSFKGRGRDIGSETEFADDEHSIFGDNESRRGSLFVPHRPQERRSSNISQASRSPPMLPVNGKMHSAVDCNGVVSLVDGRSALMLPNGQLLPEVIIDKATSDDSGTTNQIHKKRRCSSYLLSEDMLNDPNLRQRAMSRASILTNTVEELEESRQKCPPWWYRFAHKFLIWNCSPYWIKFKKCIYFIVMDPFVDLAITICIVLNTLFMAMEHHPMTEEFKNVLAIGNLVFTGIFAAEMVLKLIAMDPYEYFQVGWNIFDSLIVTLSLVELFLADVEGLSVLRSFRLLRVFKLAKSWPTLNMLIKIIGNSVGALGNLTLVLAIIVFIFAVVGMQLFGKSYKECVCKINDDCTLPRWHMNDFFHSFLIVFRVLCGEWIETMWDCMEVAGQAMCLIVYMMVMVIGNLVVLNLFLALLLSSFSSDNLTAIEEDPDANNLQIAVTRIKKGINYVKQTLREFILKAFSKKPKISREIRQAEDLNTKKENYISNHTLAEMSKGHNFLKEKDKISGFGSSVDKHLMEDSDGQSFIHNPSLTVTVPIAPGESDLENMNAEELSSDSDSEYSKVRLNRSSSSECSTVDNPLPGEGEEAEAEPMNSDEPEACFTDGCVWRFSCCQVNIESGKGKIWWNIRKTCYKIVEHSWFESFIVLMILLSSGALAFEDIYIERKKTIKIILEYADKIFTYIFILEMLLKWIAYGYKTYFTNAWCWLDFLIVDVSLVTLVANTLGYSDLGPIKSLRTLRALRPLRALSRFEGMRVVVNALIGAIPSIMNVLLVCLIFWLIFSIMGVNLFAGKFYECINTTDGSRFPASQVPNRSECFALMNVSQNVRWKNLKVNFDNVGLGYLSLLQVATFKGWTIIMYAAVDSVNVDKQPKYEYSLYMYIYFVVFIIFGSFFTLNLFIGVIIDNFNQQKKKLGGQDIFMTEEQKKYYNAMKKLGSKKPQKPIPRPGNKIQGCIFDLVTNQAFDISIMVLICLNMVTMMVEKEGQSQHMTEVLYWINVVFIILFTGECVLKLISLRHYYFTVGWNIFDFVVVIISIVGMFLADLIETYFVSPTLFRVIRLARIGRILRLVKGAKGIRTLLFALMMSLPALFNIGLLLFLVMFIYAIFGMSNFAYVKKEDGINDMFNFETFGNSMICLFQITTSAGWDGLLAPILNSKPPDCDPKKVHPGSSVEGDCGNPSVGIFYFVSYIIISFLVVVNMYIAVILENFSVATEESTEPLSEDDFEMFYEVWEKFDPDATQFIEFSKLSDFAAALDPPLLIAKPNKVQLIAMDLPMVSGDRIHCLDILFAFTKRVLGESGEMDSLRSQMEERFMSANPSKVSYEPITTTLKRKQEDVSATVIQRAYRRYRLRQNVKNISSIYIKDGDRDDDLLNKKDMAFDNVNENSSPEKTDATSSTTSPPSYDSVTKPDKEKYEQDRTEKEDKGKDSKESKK
With a cut-off of 200 nM, any IC50 strictly below it is called condition met; any IC50 meeting it or above is called condition not met.

INSERT INTO results (compound, assigned_class) VALUES
  ('O=S(=O)(Nc1nccs1)c1cc(Cl)c(NC[C@@H]2CCCNC2)cc1F', 'condition met'),
  ('CC(=O)N1CCCC(CNc2cc(F)c(S(=O)(=O)Nc3nccs3)cc2Cl)C1 (racemic)', 'condition not met'),
  ('O=S(=O)(Nc1ncns1)c1cc(Cl)c(NCCC2CCCCN2)cc1F (racemic)', 'condition met'),
  ('O=S(=O)(Nc1ncns1)c1cc(F)c(OC[C@@H]2CNCC[C@H]2c2ccc(Cl)cc2)cc1F', 'condition met'),
  ('N[C@H]1CC[C@@](CCOc2cc(F)c(S(=O)(=O)Nc3ncns3)cc2F)(c2ccccc2)CC1', 'condition not met'),
  ('N[C@H]1CC[C@](CCOc2cc(F)c(S(=O)(=O)Nc3ncns3)cc2F)(c2ccccc2)CC1', 'condition met'),
  ('C[C@]1(CCOc2cc(F)c(S(=O)(=O)Nc3ncns3)cc2F)CC[C@H](N)CC1', 'condition not met'),
  ('O=S(=O)(Nc1ncns1)c1cc(F)c(OCCC2(c3ccc(Cl)cc3)CCNCC2)cc1F', 'condition met'),
  ('N[C@H]1CC[C@@H](CNc2cc(F)c(S(=O)(=O)Nc3nccs3)cc2Cl)CC1', 'condition met'),
  ('O=S(=O)(Nc1nccs1)c1cc(Cl)c(NC[C@H]2CCCN(O)C2)cc1F', 'condition met'),
  ('O=S(=O)(Nc1ncns1)c1cc(F)c(OCC2(c3ccc(Cl)cc3)CCNCC2)cc1F', 'condition not met'),
  ('CN1CCCC(CNc2cc(F)c(S(=O)(=O)Nc3nccs3)cc2Cl)C1 (racemic)', 'condition not met'),
  ('O=S(=O)(Nc1nccs1)c1cc(Cl)c(NC[C@H]2CCCNC2)cc1F', 'condition met'),
  ('O=S(=O)(Nc1nccs1)c1cc(Cl)c(NC[C@@H]2CCCN(O)C2)cc1F', 'condition not met'),
  ('C[C@]1(CCOc2cc(F)c(S(=O)(=O)Nc3ncns3)cc2F)CC[C@@H](N)CC1', 'condition met'),
  ('CN1C(C)(C)CC(Nc2cc(F)c(S(=O)(=O)Nc3nccs3)cc2Cl)CC1(C)C', 'condition met'),
  ('O=S(=O)(Nc1nccs1)c1cc(Cl)c(NCC2CNC2)cc1F', 'condition not met'),
  ('O=S(=O)(Nc1nccs1)c1cc(Cl)c(NCC2CNCCO2)cc1F (racemic)', 'condition met'),
  ('O=S(=O)(Nc1nccs1)c1cc(Cl)c(NCCC2CCNC2)cc1F (racemic)', 'condition met');

---

biological target: Sodium channel protein type 9 subunit alpha (Mus musculus, UniProt Q62205); experiment: Inhibition of Nav1.7 in C57BL/6 mouse DRG neurons assessed as reduction in native TTX-S current amplitude by manual patch clamp electrophysiology assay
Sequence (Q62205 whole entry): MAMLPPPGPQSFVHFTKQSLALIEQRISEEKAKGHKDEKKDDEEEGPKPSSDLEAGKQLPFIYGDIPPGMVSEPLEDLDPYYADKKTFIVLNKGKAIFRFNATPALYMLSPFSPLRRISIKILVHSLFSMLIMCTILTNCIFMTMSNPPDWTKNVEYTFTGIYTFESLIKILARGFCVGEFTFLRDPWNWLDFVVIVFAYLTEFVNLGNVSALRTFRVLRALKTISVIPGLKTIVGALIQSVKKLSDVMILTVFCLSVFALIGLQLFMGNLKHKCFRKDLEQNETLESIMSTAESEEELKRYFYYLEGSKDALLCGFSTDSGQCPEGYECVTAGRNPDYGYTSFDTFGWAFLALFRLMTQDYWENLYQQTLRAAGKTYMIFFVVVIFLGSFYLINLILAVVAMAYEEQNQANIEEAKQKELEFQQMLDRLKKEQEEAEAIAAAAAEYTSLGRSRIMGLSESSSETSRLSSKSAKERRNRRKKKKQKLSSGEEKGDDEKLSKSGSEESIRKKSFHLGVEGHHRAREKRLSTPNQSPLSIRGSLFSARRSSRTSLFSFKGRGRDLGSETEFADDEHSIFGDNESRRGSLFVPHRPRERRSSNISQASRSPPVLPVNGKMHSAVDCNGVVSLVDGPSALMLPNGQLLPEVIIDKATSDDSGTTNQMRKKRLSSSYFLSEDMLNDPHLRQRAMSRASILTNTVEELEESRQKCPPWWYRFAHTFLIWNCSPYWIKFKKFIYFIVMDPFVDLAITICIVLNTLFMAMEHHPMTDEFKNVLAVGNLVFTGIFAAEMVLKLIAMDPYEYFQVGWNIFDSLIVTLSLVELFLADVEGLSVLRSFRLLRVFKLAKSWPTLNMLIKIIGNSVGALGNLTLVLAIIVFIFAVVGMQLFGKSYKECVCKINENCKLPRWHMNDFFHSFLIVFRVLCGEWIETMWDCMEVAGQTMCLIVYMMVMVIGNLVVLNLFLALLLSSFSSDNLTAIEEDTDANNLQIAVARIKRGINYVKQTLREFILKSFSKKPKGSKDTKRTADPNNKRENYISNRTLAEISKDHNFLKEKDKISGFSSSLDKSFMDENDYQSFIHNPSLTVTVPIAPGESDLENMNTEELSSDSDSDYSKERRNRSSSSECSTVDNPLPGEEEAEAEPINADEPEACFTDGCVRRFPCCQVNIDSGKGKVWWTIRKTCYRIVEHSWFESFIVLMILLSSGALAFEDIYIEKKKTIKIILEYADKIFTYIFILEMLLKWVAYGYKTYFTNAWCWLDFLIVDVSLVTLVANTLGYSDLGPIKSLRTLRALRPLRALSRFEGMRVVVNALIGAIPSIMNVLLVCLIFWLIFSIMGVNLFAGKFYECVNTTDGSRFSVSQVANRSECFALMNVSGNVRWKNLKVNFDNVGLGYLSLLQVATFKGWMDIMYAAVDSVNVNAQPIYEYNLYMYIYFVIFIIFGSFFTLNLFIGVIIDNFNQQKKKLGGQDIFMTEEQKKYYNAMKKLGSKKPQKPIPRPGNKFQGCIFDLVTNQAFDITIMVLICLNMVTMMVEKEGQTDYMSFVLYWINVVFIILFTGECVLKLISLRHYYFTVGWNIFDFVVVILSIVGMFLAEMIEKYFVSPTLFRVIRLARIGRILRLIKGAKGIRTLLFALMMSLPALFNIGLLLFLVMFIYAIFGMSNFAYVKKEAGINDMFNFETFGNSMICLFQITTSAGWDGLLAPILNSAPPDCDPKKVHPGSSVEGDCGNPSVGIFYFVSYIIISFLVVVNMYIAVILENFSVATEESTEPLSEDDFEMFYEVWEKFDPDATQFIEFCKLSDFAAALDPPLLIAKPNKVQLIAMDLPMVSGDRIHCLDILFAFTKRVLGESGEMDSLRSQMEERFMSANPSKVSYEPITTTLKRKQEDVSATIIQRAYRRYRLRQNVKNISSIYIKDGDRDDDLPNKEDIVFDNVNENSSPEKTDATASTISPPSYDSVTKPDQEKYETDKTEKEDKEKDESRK
endpoint-label: IC50 (nM)

INSERT INTO results (structure_notation, target_or_system, endpoint_label, display_unit, reported) VALUES
  ('N[C@H]1CC[C@@H](CNc2cc(F)c(S(=O)(=O)Nc3nccs3)cc2Cl)CC1', 'Sodium channel protein type 9 subunit alpha (Mus musculus, UniProt Q62205)', 'IC50', 'nM', 6);
